targetOrTestSystem: varroa mite proctolin receptor (VdProctR) (Varroa destructor, UniProt A0A7T1TE40)
Sequence (A0A7T1TE40 1-530): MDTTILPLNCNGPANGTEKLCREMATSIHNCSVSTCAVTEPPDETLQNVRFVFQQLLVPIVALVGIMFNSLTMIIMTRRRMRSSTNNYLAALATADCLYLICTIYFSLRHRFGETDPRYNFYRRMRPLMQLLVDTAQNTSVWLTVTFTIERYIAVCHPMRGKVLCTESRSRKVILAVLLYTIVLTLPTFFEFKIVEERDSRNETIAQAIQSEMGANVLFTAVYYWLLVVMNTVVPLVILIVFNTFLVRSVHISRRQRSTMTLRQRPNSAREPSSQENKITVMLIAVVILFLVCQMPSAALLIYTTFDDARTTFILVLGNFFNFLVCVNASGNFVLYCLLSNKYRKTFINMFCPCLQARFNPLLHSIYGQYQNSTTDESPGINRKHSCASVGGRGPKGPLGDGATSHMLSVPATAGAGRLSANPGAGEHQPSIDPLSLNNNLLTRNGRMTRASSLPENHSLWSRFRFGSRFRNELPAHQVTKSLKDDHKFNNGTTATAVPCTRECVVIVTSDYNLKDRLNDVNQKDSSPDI
assayText: Receptor activity assay: luminescence in cells transiently transfected with varroa mite proctolin receptor
Assay type: cell-based
setupConditions: first set of experiments; EC50 relative to proctolin (0.22 nM)
Ends that are not written are not given here.
Reported Fold change values for a set of substances
Field format: numeric only.

>>> observedresult("RGYLPT [Analog G2, RGYLPT]")
72095.45
>>> observedresult("RYLPTG [Analog G6, RYLPTG]")
2175.00
>>> observedresult("RYGLPT [Analog G3, RYGLPT]")
142868.18
>>> observedresult("RYLPGT [Analog G5, RYLPGT]")
5259.09
>>> observedresult("GRYLPT [Analog G1, GRYLPT]")
140.36

In: Give Fold change; test system varroa mite proctolin receptor (VdProctR) (Varroa destructor, UniProt A0A7T1TE40); substance RYLGPT [Analog G4, RYLGPT]
Out: 4954.55
